Assay: in vivo
Conditions: female, CD-1, mouse, po, 10 mg/kg
parameter: MRT last at 24 h

query: Endpoint output: MRT last at 24 h of C=C(C)C(=O)Nc1ccc(-c2c(-c3ccc(Oc4nccc(C)n4)c(F)c3)c3c(N)ncnc3n2C)cc1 [LIRAFUGRATINIB] . Value?
result: 2 h

###

Assay: in vivo
Conditions: male, Beagle, dog, po, 5 mg/kg
parameter: half-life at 24 h (h)
# number only, unit h dropped from output

query: Endpoint output: half-life at 24 h of `C=C(C)C(=O)Nc1ccc(-c2c(-c3ccc(Oc4nccc(C)n4)c(F)c3)c3c(N)ncnc3n2C)cc1` . Value?
result: 2.3

Entry source: ChEMBL document CHEMBL6096737
